These data points were gathered from paper PMC9090415.

Biological target: bacteriophage T4 DNA polymerase (Enterobacteria phage T4)
Construct: made in house
Sequence (P04415 whole entry): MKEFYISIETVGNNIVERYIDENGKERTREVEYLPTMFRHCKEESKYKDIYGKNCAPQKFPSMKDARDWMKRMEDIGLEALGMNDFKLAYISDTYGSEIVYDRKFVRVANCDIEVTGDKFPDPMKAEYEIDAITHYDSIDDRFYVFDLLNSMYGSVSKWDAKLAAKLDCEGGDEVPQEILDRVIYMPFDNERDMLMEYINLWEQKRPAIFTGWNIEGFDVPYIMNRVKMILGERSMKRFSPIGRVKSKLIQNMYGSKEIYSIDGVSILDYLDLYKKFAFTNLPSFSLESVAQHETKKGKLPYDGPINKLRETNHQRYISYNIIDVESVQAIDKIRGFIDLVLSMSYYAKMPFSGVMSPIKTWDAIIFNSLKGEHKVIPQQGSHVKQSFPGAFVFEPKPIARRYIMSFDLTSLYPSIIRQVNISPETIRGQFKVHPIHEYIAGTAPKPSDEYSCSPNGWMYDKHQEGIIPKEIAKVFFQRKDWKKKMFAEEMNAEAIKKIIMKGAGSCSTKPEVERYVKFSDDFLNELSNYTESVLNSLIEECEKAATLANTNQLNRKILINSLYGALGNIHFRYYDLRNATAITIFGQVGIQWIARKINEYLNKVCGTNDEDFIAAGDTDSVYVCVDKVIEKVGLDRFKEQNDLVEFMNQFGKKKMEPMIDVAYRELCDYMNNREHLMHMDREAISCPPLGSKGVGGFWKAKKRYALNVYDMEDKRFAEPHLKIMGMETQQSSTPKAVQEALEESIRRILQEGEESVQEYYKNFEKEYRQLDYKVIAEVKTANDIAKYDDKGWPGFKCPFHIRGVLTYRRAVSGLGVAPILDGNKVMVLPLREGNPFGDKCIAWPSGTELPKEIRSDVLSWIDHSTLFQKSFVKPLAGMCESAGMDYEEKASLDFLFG
Test: Counter-screen against bacteriophage T4 DNA polymerase
Assay type: biochemical
Details: DRC-2; read at 10'; concentration 80
Listing of recorded % inhibition T4 10' 80 by entry.
Number plus unit, in that order.

Recorded results for 2 molecules are shown here.
MOLECULE: Cn1nc(-c2nc(-c3ccccc3)no2)c2c1CCN(C(=O)Cc1cccs1)C2
% inhibition T4 10' 80: 20%

MOLECULE: CCCc1ccc(Oc2coc3cc(OC)ccc3c2=O)cc1
% inhibition T4 10' 80: -4.57%

**Q:** Looking for the measured % inhibition T4 10' 80 of O=C(c1ccccc1)N1CCc2c(nc3cc(-c4ccccc4)[nH]n3c2=O)C1 , can you help?
**A:** -22%

**Q:** Report % inhibition T4 10' 80 for Cn1nc(-c2nnc(-c3ccccc3F)o2)c2c1CCN(C(=O)c1ccccc1Cl)C2 please.
**A:** 11%
